Reported protein stability index values for a set of sequences
- Tested on: Saccharomyces cerevisiae
- assayNotes: protein stability index of tFT-peptide fusion (C-terminal peptide) (PSI (0-1 scale)); higher = more stable (slower turnover)
- particulars: genetic background: wild type; temperature: 30 C
Write the number on its own, no unit after it.

Record excerpt, results attached:
[[record]]
orderedresidues = "GLCLLSKDGCLV"
val = 0.669

[[record]]
orderedresidues = "HSQPPRRPSTNP"
val = 0.792


Now consider the entry below.
Incoming: GET protein stability index | system: Saccharomyces cerevisiae | item: CGRPRGGEPGGA
Outgoing: 0.715

* * *

- System: Saccharomyces cerevisiae;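 also: PSI is a weighted mean of sequencing reads over stability bins, variants kept only with over 10 reads, mCherry proximal and sfGFP distal, peptide attached via GGGS linker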
- assayNotes: protein stability index of tFT-peptide fusion (C-terminal peptide) (PSI (0-1 scale)); higher = more stable (slower turnover)
- particulars: genetic background: wild type; temperature: 30 C
Reported protein stability index values for a set of sequences
Write the number on its own, no unit after it.

[[record]]
orderedresidues = "KQGHNEIMTKGK"
observable = "protein stability index"
val = 0.681


Incoming: Tell me its protein stability index given GKEKGRAEGRDG as the entry.
Outgoing: 0.701

Incoming: Tell me its protein stability index given NKKIKKDKIKGK as the entry.
Outgoing: 0.692

Incoming: Tell me its protein stability index given LLPPPSRTPPPS as the entry.
Outgoing: 0.688

Incoming: Tell me its protein stability index given VRGKGWRGGWWG as the entry.
Outgoing: 0.682

Incoming: Tell me its protein stability index given ISLCSVARLGFA as the entry.
Outgoing: 0.704

Incoming: Tell me its protein stability index given KETTEKTEIRII as the entry.
Outgoing: 0.7

Incoming: Tell me its protein stability index given TNYIPRQSKKGG as the entry.
Outgoing: 0.71

Incoming: Tell me its protein stability index given PSSPPSLSPPLP as the entry.
Outgoing: 0.718
